# Test system: MOLT-4 leukemia
# Assay protocol: NCI tumour cell line growth inhibition, 48 h
Endpoint: TGI

INPUT: Report TGI on MOLT-4 leukemia for this entry: COc1ccc2c(c1)C(=O)/C(=C/c1cccc(OCC(=O)Nc3nc4c(s3)CCCC4)c1)O2
OUTPUT: > 100 µM

INPUT: Report TGI under test system MOLT-4 leukemia for CCOP(C)(=O)C(Cc1c[nH]c2ccccc12)C(=O)O (stereo not given) .
OUTPUT: > 100 µM

INPUT: Report value: TGI, system: MOLT-4 leukemia, compound: CC1C(=O)OC2CC[N+]3(CC(=O)c4ccc(Br)cc4)CC=C(COC(=O)C(C)(O)C1(C)O)C23 (stereo not given)
OUTPUT: > 375 µM

INPUT: Report TGI from MOLT-4 leukemia testing of CS(=O)(=O)NNS(=O)(=O)c1cccc([N+](=O)[O-])c1
OUTPUT: > 100 µM

INPUT: Retrieve TGI on MOLT-4 leukemia; query O=c1cc(-c2ccccc2)[nH]c2cc(F)c(F)cc12
OUTPUT: > 100 µM

INPUT: Please report TGI with MOLT-4 leukemia for item COc1ccc(N(C)S(=O)(=O)c2ccccc2)cc1 .
OUTPUT: > 100 µM

INPUT: Would you please give the reported TGI of C=CCc1cc(-c2cc(CC=C)c(O)c(CN(CCCl)CCCl)c2)cc(CN(CCCl)CCCl)c1O with MOLT-4 leukemia?
OUTPUT: > 100 µM

INPUT: // fetch TGI; item: Cc1cc(C)nc(NS(=O)(=O)c2ccc(Nc3nncc(=O)n3N)cc2)n1 ; system: MOLT-4 leukemia
OUTPUT: 48.6 µM

Further cases:
INPUT: Provide MOLT-4 leukemia TGI reading for CNC(=O)CN(CC(=O)NC)C(=O)NC .
OUTPUT: > 100 µM

INPUT: Under MOLT-4 leukemia: report TGI of C[C@@H]1CN(C(=O)c2ccc(NC(=O)c3cc(O[C@H](C)c4c(Cl)ccc(F)c4Cl)c(N)nn3)cc2)C[C@H](C)N1 .
OUTPUT: 10.4 µM

INPUT: Provide TGI, system MOLT-4 leukemia, entry Nc1nc(N)c(N=O)c(Nc2ccc(O)cc2)n1
OUTPUT: > 60.9 µM

* * *

# Tested on: TK-10 renal
# Assay protocol: NCI tumour cell line growth inhibition, 48 h
Endpoint: GI50

These recorded examples may help you get a feel for the data.
INPUT: Input COc1cc(C(=O)c2ccc3c(c2)OCO3)cc(OC)c1OC , output reported GI50.
OUTPUT: 4.44 µM

INPUT: Provide measured GI50 value, entry: COc1cc2nc(-c3cnc(N(C)C)nc3)nc(NC3CCN(Cc4ccccc4)CC3)c2cc1OC
OUTPUT: 1.63 µM

INPUT: Specify GI50 for CCN(CC)CCCC(C)Nc1cnc(C(=O)Nc2ccc(Cl)c3cccnc23)cn1 (centres undefined) and stop.
OUTPUT: 9.09 µM

INPUT: State, in one line, measured GI50 of CC1=C(C(=O)Nc2ccc(F)c(Cl)c2)C(c2ccccc2Cl)NC(=S)N1 (centres undefined)
OUTPUT: 48.8 µM

INPUT: Return the recorded GI50 value; entry: CCOc1cccc(/C=N/NC(=O)c2ccc(Nc3ccnc(C(F)(F)F)c3)cc2)c1O
OUTPUT: 2.48 µM

INPUT: Identify the reported GI50 for the following entry. CC[C@@H](C(=O)[C@@H](C)[C@@H](O)[C@H](C)[C@@H]1O[C@@H]([C@@H](CC)C(=O)O)CC[C@@H]1C)C1O[C@]2(C=CC(=O)[C@]3(CC[C@@](C)([C@H]4CC[C@](O)(CC)[C@H](C)O4)O3)O2)[C@H](C)C[C@@H]1C (some centres undefined)
OUTPUT: 2.08 µM

INPUT: Provide measured GI50 value, entry: COC(=O)Nc1nc2ccc(Oc3ccc(NC(=O)Nc4cccc(C(=O)O)c4)cc3)cc2[nH]1
OUTPUT: > 23.1 µM

INPUT: Give recorded GI50. Cn1cncc1[C@@](N)(c1ccc(Cl)cc1)c1ccc2c(c1)c(-c1cccc(Cl)c1)cc(=O)n2C
OUTPUT: 2.57 µM

Next:
INPUT: Could you please provide reported GI50 for C[C@@H]1CN(C(=O)c2ccc(NC(=O)c3cc(O[C@H](C)c4c(Cl)ccc(F)c4Cl)c(N)nn3)cc2)C[C@H](C)N1 ? Thanks!
OUTPUT: 11.5 µM
